test system: Escherichia coli; assay: Antibacterial activity against Escherichia coli; assay type: functional
measure.name: MIC (µg/mL)
Provide the reading as a plain figure in µg/mL.

Quick note, MIC for CCOC(=O)C1=C(C)NC(C)=C(C(=O)OCC)C1c1ccc(NC(=O)Nc2cc(F)ccc2F)cc1 landed at 70

Quick note, MIC for CCOC(=O)C1=C(C)NC(C)=C(C(=O)OCC)C1c1ccc(NC(=O)Nc2ccc(Cl)cc2)cc1 landed at 20

Quick note, MIC for O=C(O)c1cn(C2CC2)c2cc(N3CCNCC3)c(F)cc2c1=O landed at 20

Quick note, MIC for CCOC(=O)C1=C(C)NC(C)=C(C(=O)OCC)C1c1ccc(N)cc1 landed at 40

Quick note, MIC for CCOC(=O)C1=C(C)NC(C)=C(C(=O)OCC)C1c1ccc(NC(=O)Nc2ccc(Cl)cc2C(F)(F)F)cc1 landed at 45
